- experimental_details: in vitro
- Assay type: cell-based
- measurement_conditions: human, MT2 cells; Table 3; trypan blue exclusion; read-out: Cytotoxicity
property_name: CC50 (µM)
Reply numerically in µM, unit not repeated.

Given the molecule N=C(N)NCCC[C@H](NC(=O)[C@H](CCCNC(=N)N)NC(=O)[C@H](CCCNC(=N)N)NC(=O)[C@H](CCCNC(=N)N)NC(=O)[C@H](CCCNC(=N)N)NC(=O)[C@H](CCCNC(=N)N)NC(=O)[C@H](CCCNC(=N)N)NC(=O)[C@H](CCCNC(=N)N)NC(=O)[C@@H](N)CCCNC(=N)N)C(=O)NC[C@H]1O[C@H](O[C@H]2[C@H](O)[C@@H](O)[C@H](N)C[C@@H]2N)[C@H](N)[C@@H](O)[C@@H]1O , write its reported CC50.
175

Given the molecule N=C(N)NCCCC(N)C(=O)NC(CCCNC(=N)N)C(=O)NC(CCCNC(=N)N)C(=O)NC(CCCNC(=N)N)C(=O)NC(CCCNC(=N)N)C(=O)NC(CCCNC(=N)N)C(=O)NC(CCCNC(=N)N)C(=O)NC(CCCNC(=N)N)C(=O)NC(CCCNC(=N)N)C(=O)NC[C@H]1O[C@H](O[C@H]2[C@H](O)[C@@H](O)[C@H](N)C[C@@H]2N)[C@H](N)[C@@H](O)[C@@H]1O (stereo partly shown) , write its reported CC50.
160

Given the molecule N=C(N)NCCC[C@H](NC(=O)[C@H](CCCNC(=N)N)NC(=O)[C@H](CCCNC(=N)N)NC(=O)[C@H](CCCNC(=N)N)NC(=O)[C@H](CCCNC(=N)N)NC(=O)[C@H](CCCNC(=N)N)NC(=O)[C@H](CCCNC(=N)N)NC(=O)[C@H](CCCNC(=N)N)NC(=O)[C@@H](N)CCCNC(=N)N)C(=O)O , write its reported CC50.
120

As a next step, examine the molecule that follows.
Given the molecule N=C(N)NCCC[C@H](NC(=O)[C@H](CCCNC(=N)N)NC(=O)[C@H](CCCNC(=N)N)NC(=O)[C@H](CCCNC(=N)N)NC(=O)[C@H](CCCNC(=N)N)NC(=O)[C@@H](N)CCCNC(=N)N)C(=O)NC[C@@H]1O[C@H](O[C@H]2[C@@H](O)[C@H](O[C@@H]3[C@@H](O)[C@H](N)C[C@H](N)[C@H]3O[C@H]3O[C@H](CO)[C@@H](O)[C@H](O)[C@H]3N)O[C@@H]2CO)[C@H](N)[C@@H](O)[C@@H]1O , write its reported CC50.
160
